Provenance of the data: paper PMC6451091

- assay system: PU.1 (IVT) (UniProt P17947 1-270)
- test summary: protein-binding microarray (PBM); 20 mM HEPES pH 7.9, 100 mM NaCl, 1 mM DTT, 0.2 mg/mL BSA, 0.02% Triton X-100, 2% milk, 0.4 mg/mL salmon testes DNA; 1 h; temperature not stated; high values mean tight binding
- particulars: dsDNA, one strand shown
Whole data set: some 3,700 sequences, median “z-score” near 4, cut for the highest 2% near 8.4. For the sample, the highest values were picked, then their nearest neighbours and some sequences at random.
readout name: binding signal (z-score)
Give your result in z-score as a bare value.

GCCTAGCACGAAAACAGGAAGTCCGATAGGTGCTAGGTCTTGATTCGCTTGACGCTGCTG yielded binding signal of 7.15

GCCTAGCACCAAAAGAGGAAGTGGTATCAGTGCTAGGTCTTGATTCGCTTGACGCTGCTG yielded binding signal of 8.24

GCCTAGCACCAAAAGAGGAAGTCAGAGAGGTGCTAGGTCTTGATTCGCTTGACGCTGCTG yielded binding signal of 7.94

GCCTAGCACCAAAGAAGGAAGTGAAACTGGTGCTAGGTCTTGATTCGCTTGACGCTGCTG yielded binding signal of 4.74

GCCTAGCACAAAATGAGGAAGTGAGCTAAGTGCTAGGTCTTGATTCGCTTGACGCTGCTG yielded binding signal of 7.94

GCCTAGCACCAAAAGAGGAAGTGGTGAAAGTGCTAGGTCTTGATTCGCTTGACGCTGCTG yielded binding signal of 8.4

GCCTAGCACCAAAAGAGGAACTGCTGCTGGTGCTAGGTCTTGATTCGCTTGACGCTGCTG yielded binding signal of 6.83

GCCTAGCACTGGGAGGAGAAGTGAAACCTGTGCTAGGTCTTGATTCGCTTGACGCTGCTG yielded binding signal of 1.37

GCCTAGCACCTGCCAGGGAAGTGAAATCAGTGCTAGGTCTTGATTCGCTTGACGCTGCTG yielded binding signal of 1.1

====

- assay system: PU.1 (IVT) (UniProt P17947 1-270)
- test summary: protein-binding microarray (PBM); 20 mM HEPES pH 7.9, 100 mM NaCl, 1 mM DTT, 0.2 mg/mL BSA, 0.02% Triton X-100, 2% milk, 0.4 mg/mL salmon testes DNA; 1 h; temperature not stated; high values mean tight binding
- particulars: dsDNA, one strand shown
Over roughly 3,700 sequences, “z-score” has its median near 4; the highest 2% begin near 8.4. The list comes from a sample in which the highest values are over-represented; it also holds close analogues and randomly drawn sequences.
Friendly reminder: binding signal below 3 z-score is label 1, at or above is label 0.

Input GCCTAGCACAGAGAGAGGAAGTGAGCTCTGTGCTAGGTCTTGATTCGCTTGACGCTGCTG ; condition: binding signal strictly below 3 z-score. Does it hold? label 0

Input GCCTAGCACTTTTATCAGGAAATGACTGGGTGCTAGGTCTTGATTCGCTTGACGCTGCTG ; condition: binding signal strictly below 3 z-score. Does it hold? label 1

Input GCCTAGCACCTGCAAAGGAAGTCTGGGCCGTGCTAGGTCTTGATTCGCTTGACGCTGCTG ; condition: binding signal strictly below 3 z-score. Does it hold? label 1

Input GCCTAGCACGAAAACAGGAACTGCAAATAGTGCTAGGTCTTGATTCGCTTGACGCTGCTG ; condition: binding signal strictly below 3 z-score. Does it hold? label 0

Input GCCTAGCACGAAAAGAGGAAGAGTCTTAGGTGCTAGGTCTTGATTCGCTTGACGCTGCTG ; condition: binding signal strictly below 3 z-score. Does it hold? label 0

Input GCCTAGCACTGAGAGGAGAAGTGAAATCTGTGCTAGGTCTTGATTCGCTTGACGCTGCTG ; condition: binding signal strictly below 3 z-score. Does it hold? label 1

Input GCCTAGCACATAAAAGGGAAGTGGGGCATGTGCTAGGTCTTGATTCGCTTGACGCTGCTG ; condition: binding signal strictly below 3 z-score. Does it hold? label 0

Input GCCTAGCACGATAAGAGGAAGTGCTCTGTGTGCTAGGTCTTGATTCGCTTGACGCTGCTG ; condition: binding signal strictly below 3 z-score. Does it hold? label 0

Input GCCTAGCACCAAATCAGGAACTGATGCGGGTGCTAGGTCTTGATTCGCTTGACGCTGCTG ; condition: binding signal strictly below 3 z-score. Does it hold? label 0

Input GCCTAGCACTTAAGGAGGAACTGAAACCAGTGCTAGGTCTTGATTCGCTTGACGCTGCTG ; condition: binding signal strictly below 3 z-score. Does it hold? label 1

Input GCCTAGCACGAAAAGAGGAAATGGGGAGTGTGCTAGGTCTTGATTCGCTTGACGCTGCTG ; condition: binding signal strictly below 3 z-score. Does it hold? label 0

Input GCCTAGCACGAAGTAGGGAAGTGAAAGAGGTGCTAGGTCTTGATTCGCTTGACGCTGCTG ; condition: binding signal strictly below 3 z-score. Does it hold? label 0

Input GCCTAGCACAAAAGGAGGAAGTGGTTACAGTGCTAGGTCTTGATTCGCTTGACGCTGCTG ; condition: binding signal strictly below 3 z-score. Does it hold? label 0

Input GCCTAGCACTGAGAGAGGAAGTAACTTAAGTGCTAGGTCTTGATTCGCTTGACGCTGCTG ; condition: binding signal strictly below 3 z-score. Does it hold? label 0

Input GCCTAGCACTTAAAGAGGAAGAGCATCTTGTGCTAGGTCTTGATTCGCTTGACGCTGCTG ; condition: binding signal strictly below 3 z-score. Does it hold? label 0

Input GCCTAGCACCGAAAAGGGAAATACTGTGAGTGCTAGGTCTTGATTCGCTTGACGCTGCTG ; condition: binding signal strictly below 3 z-score. Does it hold? label 1

Input GCCTAGCACGAAAGGAGGAAGTGAAACTGGTGCTAGGTCTTGATTCGCTTGACGCTGCTG ; condition: binding signal strictly below 3 z-score. Does it hold? label 0

Input GCCTAGCACTTGGTCAGGAAGTGAAACTGGTGCTAGGTCTTGATTCGCTTGACGCTGCTG ; condition: binding signal strictly below 3 z-score. Does it hold? label 1

Input GCCTAGCACACAATGAGGAAGTGCTGGCCGTGCTAGGTCTTGATTCGCTTGACGCTGCTG ; condition: binding signal strictly below 3 z-score. Does it hold? label 0

Input GCCTAGCACGGAATAGGGAAGTGAAACTGGTGCTAGGTCTTGATTCGCTTGACGCTGCTG ; condition: binding signal strictly below 3 z-score. Does it hold? label 0

Input GCCTAGCACCACAAGAGGAAGTCCCACAAGTGCTAGGTCTTGATTCGCTTGACGCTGCTG ; condition: binding signal strictly below 3 z-score. Does it hold? label 0

Input GCCTAGCACGATAGCAGGAAGTGAAACTAGTGCTAGGTCTTGATTCGCTTGACGCTGCTG ; condition: binding signal strictly below 3 z-score. Does it hold? label 0

Input GCCTAGCACCAGAAAAGGAAGTGGGGGTGGTGCTAGGTCTTGATTCGCTTGACGCTGCTG ; condition: binding signal strictly below 3 z-score. Does it hold? label 0

Input GCCTAGCACCAAATGAGGAATTGATGCGGGTGCTAGGTCTTGATTCGCTTGACGCTGCTG ; condition: binding signal strictly below 3 z-score. Does it hold? label 1

Input GCCTAGCACGGTGGGAGGAAGTGATCGGTGTGCTAGGTCTTGATTCGCTTGACGCTGCTG ; condition: binding signal strictly below 3 z-score. Does it hold? label 0

Input GCCTAGCACAAAGTGGGGAAGTGACAAAAGTGCTAGGTCTTGATTCGCTTGACGCTGCTG ; condition: binding signal strictly below 3 z-score. Does it hold? label 0

Input GCCTAGCACCAAAGGAGGAACTGAAACCAGTGCTAGGTCTTGATTCGCTTGACGCTGCTG ; condition: binding signal strictly below 3 z-score. Does it hold? label 0

Input GCCTAGCACATTTCTGGGAAGTGAAACTAGTGCTAGGTCTTGATTCGCTTGACGCTGCTG ; condition: binding signal strictly below 3 z-score. Does it hold? label 1

Input GCCTAGCACAAAAAAAGGAAGTCCTTGTGGTGCTAGGTCTTGATTCGCTTGACGCTGCTG ; condition: binding signal strictly below 3 z-score. Does it hold? label 0

Input GCCTAGCACTTACACAGGAAGTGCTGGCAGTGCTAGGTCTTGATTCGCTTGACGCTGCTG ; condition: binding signal strictly below 3 z-score. Does it hold? label 1

Input GCCTAGCACAAAAAGAGGAAGAGAGAAAAGTGCTAGGTCTTGATTCGCTTGACGCTGCTG ; condition: binding signal strictly below 3 z-score. Does it hold? label 0

Input GCCTAGCACAAAAAGAGGAAGGGGAAGAAGTGCTAGGTCTTGATTCGCTTGACGCTGCTG ; condition: binding signal strictly below 3 z-score. Does it hold? label 0

Input GCCTAGCACAAAAAGAGGAAGAGGAATAGGTGCTAGGTCTTGATTCGCTTGACGCTGCTG ; condition: binding signal strictly below 3 z-score. Does it hold? label 0

Input GCCTAGCACCAAATTAGGAACTGATGCGGGTGCTAGGTCTTGATTCGCTTGACGCTGCTG ; condition: binding signal strictly below 3 z-score. Does it hold? label 1

Input GCCTAGCACGGAAAGTGGAACTGAAACTTGTGCTAGGTCTTGATTCGCTTGACGCTGCTG ; condition: binding signal strictly below 3 z-score. Does it hold? label 1

Input GCCTAGCACTTCAGGGGGAAGTACTGTGTGTGCTAGGTCTTGATTCGCTTGACGCTGCTG ; condition: binding signal strictly below 3 z-score. Does it hold? label 0
